- System: Malme-3M
- assay_text: NCI tumour cell line growth inhibition, 48 h
Active and inactive are the calls of the source. No stated cut-off is given here; in the data, active = GI50 up to about 1.1 µM and inactive = higher. Where a SMILES comes first, the peptide text is derived from it. The star is where a group is joined. Boc = CC(C)(C)OC(=O)*
assay_metric: GI50

# example entries with known answers
{"compound": "COC(=O)[C@H](Cc1ccc(O)cc1)NC(=O)[C@H](Cc1ccc(O)cc1)NC(=O)OC(C)(C)C (Boc-Tyr-Tyr-OMe)", "experimental_system": "Malme-3M", "GI50": "> 100 µM (inactive)"}
{"compound": "N#Cc1cccnc1Cl", "experimental_system": "Malme-3M", "GI50": "> 100 µM (inactive)"}
{"compound": "CC(=O)[C@@]1(c2ccccc2)CC2(CCN(C)CC2)O[C@H]1C", "experimental_system": "Malme-3M", "GI50": "> 100 µM (inactive)"}

The recorded GI50 for `O=C1N(C2CCCCC2)CC12CCCCC2` is > 100 µM (inactive)

// GI50 value for COc1ccc(C(OCC2OC(n3cc(C)c(=O)[nH]c3=O)CC2n2cc(Cn3cc(F)c(=O)[nH]c3=O)nn2)(c2ccccc2)c2ccccc2)cc1 (stereo not given) : 9.04 µM (inactive)

* * *

- Test system: OVCAR-4
- assay_text: NCI tumour cell line growth inhibition, 48 h
The source made the active and inactive calls. Cut-off read from the data, not from the text of the source: active = GI50 up to about 1.1 µM and inactive = higher.
Outcomes you can answer with include only these: TRUE for active, FALSE for inactive

Field: example entries. Status: answers known.
{"molecule": "N#C/C(=C\\c1ccc(O)c(O)c1)C(=O)NC1CCC(CC2CCC(NC(=O)/C(C#N)=C/c3ccc(O)c(O)c3)CC2)CC1 (configuration not stated)", "answer_label": "FALSE"}
{"molecule": "CCCc1cc(=O)oc2c3c(c4c(c12)OC(C)(C)CC4)O[C@@H](C)[C@H](C)[C@H]3O", "answer_label": "FALSE"}
{"molecule": "Cn1c(=O)c2c(nc3n2CC(=O)N3CCCCl)n(C)c1=O", "answer_label": "FALSE"}
{"molecule": "C=CC[N+]12CN3CN(CN(C3)C1)C2", "answer_label": "FALSE"}
{"molecule": "CC(=O)/C=C1\\CC(=O)N(C)c2ccccc2N1", "answer_label": "FALSE"}

Q. Hi team, can someone confirm the assay call for C#CCN1C(=O)CN2C(Cl)(Cl)C2(c2ccccc2)c2cc(Cl)ccc21 (configuration not stated) ?
A. FALSE

Q. Could you check what this test reported for `CCN(CC)CCNc1n[n+]([O-])c2cc([N+](=O)[O-])ccc2[n+]1[O-]` ?
A. TRUE

Q. What did the test return for Cc1cc(C)c2c(c1)CC1(Cc3c(ccc(C)c3C)C1=O)C2=O (configuration not stated) ?
A. FALSE

Q. What classification did `CCOc1ccc(NC(=O)C(=O)CC(=O)c2c(C)[n+]([O-])c3ccccc3[n+]2[O-])cc1` end up with in this test?
A. FALSE

Q. // outcome(item) with item = `COc1cc2c(cc1O)c(O)cc1c3cc(OC)c(OC)cc3c[n+](C)c21`
A. FALSE

Q. # outcome recorded in this test, key = `CCCCCCCCCCCC[C@@H](O)[C@H]1CC[C@H]([C@H](O)CC[C@H](O)[C@@H]2CC[C@@H](CCCCCCCC3=C[C@H](C)OC3=O)O2)O1`
A. FALSE

Q. Assay outcome for `C/C(=N\NS(=O)(=O)c1ccc(C)cc1)c1ccc[n+]([O-])n1` : what was it?
A. FALSE

Q. How was CN1CCN(C2=C(Cl)C3(OCCS3)C(F)(F)C2(F)F)CC1 (configuration not stated) classified in this test?
A. FALSE

* * *

- Test system: Malme-3M
- assay_text: NCI tumour cell line growth inhibition, 48 h
Calls of active or inactive are those of the source. No stated cut-off is given here; in the data, active = GI50 up to about 1.1 µM and inactive = higher.
assay_metric: GI50

{"compound": "COc1ccc(/C=N/n2c(C)n[nH]c2=O)c(OC)c1", "GI50": "> 100 µM (inactive)"}
{"compound": "CCCCCCCCCCCCCCCCCC(=O)NCC(COP(=O)([O-])OCC[N+](C)(C)C)OCC (centres undefined)", "GI50": "21.3 µM (inactive)"}
{"compound": "N#C/C(=C\\c1ccc(O)c(O)c1)C(=O)NC1CCC(CC2CCC(NC(=O)/C(C#N)=C/c3ccc(O)c(O)c3)CC2)CC1 (centres undefined)", "GI50": "3.65 µM (inactive)"}
{"compound": "CC[C@H]1C=CCC[C@@]2(C[C@@H]3CC[C@@H]4[C@H](C(=O)OCCCCCCCCCCCCCCCC(=O)N(CCCN)CCCCN)[C@]5(CCC[C@@H](C)O5)NC(=[N+]34)N2)O1", "GI50": "0.04 µM (active)"}
{"compound": "COC(=O)C1=C(C)NC(C)=C(C(=O)OC)C1c1cccc(NO)c1", "GI50": "16.4 µM (inactive)"}

Shift focus to the following entry.
Value of measured GI50 for the entry `CC(C)(CN1CCCCC1)C(=O)/C=C/c1c(Cl)cccc1Cl` : 0.489 µM (active)

* * *

- Test system: RXF 631
- assay_text: NCI tumour cell line growth inhibition, 48 h
The source made the active and inactive calls. No stated cut-off is given here; in the data, active = GI50 up to about 1.1 µM and inactive = higher.
assay_metric: GI50

Here are 4 molecules together with their reported answers.
{"molecule": "C#CCN(Cc1ccc2nc(-c3ccccc3)c(Cl)nc2c1)c1cc(OC)c(OC)c(OC)c1", "value_observed": "> 100 µM (inactive)"}
{"molecule": "CCOC(=O)C1S/C(=N\\c2ccccc2)N=C1C (stereo not given)", "value_observed": "> 100 µM (inactive)"}
{"molecule": "O=S1(=O)CS(=O)(=O)OCCO1", "value_observed": "47.8 µM (inactive)"}
{"molecule": "C(=C\\c1csnn1)/c1cccnc1", "value_observed": "81.7 µM (inactive)"}

Now for another entry.
Lab note: `CCOC(=O)c1oc2c(OC)ccc3c2c1CCC3` gave GI50 of > 100 µM (inactive)

* * *

- System: HOP-92
- assay_text: NCI tumour cell line growth inhibition, 48 h
The source made the active and inactive calls. Cut-off read from the data, not from the text of the source: active = GI50 up to about 1.1 µM and inactive = higher.
I would appreciate it if you answered using one of these outcomes: yes for active, no for inactive

Q. Which outcome did this test record for the compound `CC(=O)OCC(=O)[C@@]1(O)CC[C@H]2[C@@H]3C[C@H](C)C4=CC(=O)C=C[C@]4(C)[C@@]3(F)[C@@H](O)C[C@@]21C` ?
A. no

Q. Hello, I am checking results. What call was entered for `O=C1c2ccccc2C(=O)c2c1ccc(O)c2O` ?
A. no

Q. Hi, sorry to bother you, what did the test record for `Cn1c(=O)c2c(nc3n2CC(=O)N3CCCCl)n(C)c1=O` ?
A. no

Q. Would you mind telling me which call this test gave `Oc1cc2c3c(c1)CCCN3CCC2` ?
A. no

Q. Test call, this compound: CS(=O)(=O)OCC1CN(S(C)(=O)=O)c2cc(O)ccc21 (centres undefined)
A. no

* * *

- Test system: NCI-H226
- assay_text: NCI tumour cell line growth inhibition, 48 h
The source made the active and inactive calls. Rule as the data show it: active = GI50 up to about 1.1 µM and inactive = higher.
Overview of reported GI50 across a group of molecules:

{"molecule": "O/N=C1/CCCCCC1NO (stereo not given)", "GI50": "> 100 µM (inactive)"}
{"molecule": "O=P1(O)c2ccccc2CS(=O)(=O)Cc2ccccc21", "GI50": "> 100 µM (inactive)"}
{"molecule": "N#CC1(c2nc3ccccc3o2)C(=O)C(=O)N(C2C3CC4CC(C3)CC2C4)C(=O)C1=O (stereo not given)", "GI50": "> 100 µM (inactive)"}
{"molecule": "CC(C)(C)OC(=O)NC(Cc1ccc(OCc2ccccc2)cc1)C(=O)NC(COCc1ccccc1)C(=O)Oc1c(Cl)c(Cl)c(Cl)c(Cl)c1Cl (stereo not given)", "GI50": "21.4 µM (inactive)"}
{"molecule": "CC(C(=O)NCCNC(=O)CCC(=O)N(C)O)C(=O)NCCNC(=O)CCC(=O)N(C)O", "GI50": "> 100 µM (inactive)"}
{"molecule": "C=C1COC(/C=C(\\C)CC/C=C(\\C)CCl)C1 (stereo not given)", "GI50": "> 100 µM (inactive)"}

Entry under test: `CN(C)Cc1cc(/N=N/c2ccc(Cl)cc2)ccc1OC(=O)c1ccccc1` . Its GI50 was 21.9 µM (inactive)

Looking up Nc1ncc(/C=N/O)c(NCC2(CO)CC(CCc3ccccc3)C2)n1 (stereo not given) , I found its GI50 recorded as 12.9 µM (inactive)

The recorded GI50 for `Cn1c(-c2cccc([N+](=O)[O-])c2)[n+](C)c2ccccc21` is > 100 µM (inactive)

# GI50 (molecule: `COc1ccc(C(=O)N2CCN(c3ccc4c(c3)OCC(=O)N4)CC2)cc1OC` ) is > 100 µM (inactive)

* * *

- Tested on: HCT-116
- assay_text: NCI tumour cell line growth inhibition, 48 h
Calls of active or inactive are those of the source. Cut-off read from the data, not from the text of the source: active = GI50 up to about 1.1 µM and inactive = higher.
Would you mind answering with one of these outcomes? active, inactive

{"molecule": "COc1cc(C2C(C(=O)NCc3ccccc3)=C(C)NC(C)=C2C(=O)NCc2ccccc2)ccc1O", "answer_label": "inactive"}
{"molecule": "Cc1ccc([N+](=O)[O-])c2c(NCCC[N+](C)(C)[O-])ccnc12", "answer_label": "inactive"}
{"molecule": "CC1=C(C)C2(C#N)C(=O)N3C(=NC(c4ccco4)NC3c3ccco3)C2(C#N)C(c2ccco2)N1 (stereo unspecified)", "answer_label": "inactive"}
{"molecule": "O=S1(=O)CS(=O)(=O)OCCO1", "answer_label": "inactive"}
{"molecule": "BrP(NC1CCCCCC1)(c1ccccc1)(c1ccccc1)c1ccccc1", "answer_label": "inactive"}
{"molecule": "C(=C/c1nc2ccccc2o1)/c1ccc2c(c1)OCO2", "answer_label": "inactive"}
{"molecule": "OC1c2ccccc2C(O)C2OC12 (stereo unspecified)", "answer_label": "inactive"}
{"molecule": "S=C(S)N1CCN(c2ccccc2)CC1", "answer_label": "inactive"}

Q. Hello, I am checking results. What call was entered for `CCCCC[C@H]1CC=CC(=O)O1` ?
A. inactive

Q. Dear all, I need the recorded test outcome for `C=C[C@H]1CN2CCc3c([nH]c4c([C@@H]5CCCN5C)c(O)ccc34)[C@@H]2C[C@@H]1C[C@H]1c2[nH]c3ccccc3c2CCN1C` , thank you.
A. active

Q. Could you check what this test reported for `CNc1nc(N)cc(O)n1` ?
A. inactive
